- testTarget: T1, Peptide-18 (cysteine pairing not given here; also: biotinylated (site not given here))
- T1 peptide: MDFCQIYDWPICRL
- experimentalDetails: ELISA, Fab on captured biotin-peptide
Where no end group is shown, it is not given here.
parameter: EC50 (nM)

TBD-21 (HC F108A) (Fab, V domains shown, Fab; also called HC F108A mutant) VH: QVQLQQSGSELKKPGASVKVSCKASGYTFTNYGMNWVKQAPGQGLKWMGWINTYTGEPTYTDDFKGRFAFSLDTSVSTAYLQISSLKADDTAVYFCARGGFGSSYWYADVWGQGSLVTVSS VL: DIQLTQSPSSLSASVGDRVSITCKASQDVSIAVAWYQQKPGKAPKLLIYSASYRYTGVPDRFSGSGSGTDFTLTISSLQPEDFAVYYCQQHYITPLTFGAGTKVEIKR ... 38
TBD-11 (HC R98A) (Fab, V domains shown, Fab; also called HC R98A mutant) VH: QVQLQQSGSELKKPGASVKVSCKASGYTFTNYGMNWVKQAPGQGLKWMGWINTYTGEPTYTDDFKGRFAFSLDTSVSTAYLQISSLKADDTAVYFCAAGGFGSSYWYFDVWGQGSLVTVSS VL: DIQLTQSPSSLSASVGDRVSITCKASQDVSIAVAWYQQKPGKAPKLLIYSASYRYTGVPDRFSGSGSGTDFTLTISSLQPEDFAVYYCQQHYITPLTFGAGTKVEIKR ... 298
TBD-17 (HC S104A) (Fab, V domains shown, Fab; also called HC S104A mutant) VH: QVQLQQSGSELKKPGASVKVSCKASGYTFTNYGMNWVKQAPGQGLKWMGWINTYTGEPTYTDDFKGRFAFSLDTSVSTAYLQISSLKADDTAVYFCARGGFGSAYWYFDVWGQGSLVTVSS VL: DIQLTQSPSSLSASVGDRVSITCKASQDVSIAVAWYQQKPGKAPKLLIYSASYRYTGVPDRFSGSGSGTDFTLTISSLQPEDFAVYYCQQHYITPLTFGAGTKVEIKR ... 36.7
